- EXPERIMENT DESCRIPTION: High-throughput drug toxicity screening in the BPDCN cell line Gen2.2 (AID 1224824);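 also: cells exposed to compounds for 48 h before reading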
- EXPERIMENTAL PARAMETERS: Gen2.2 BPDCN cells; at 45.8 µM (top of the series) unless noted
- Excerpt: Blastic plasmacytoid dendritic cell neoplasm (BPDCN) is a rare, aggressive and largely incurable hematologic malignancy originating from plasmacytoid dendritic cells (pDCs). Although an initial response to chemotherapy is common, BPDCN prognosis is extremely poor and most patients relapse with drug-resistant disease leading to a median overall survival of ~1 year after diagnosis. […]
Hi! Could you tag entries with cell viability, % of control (lower = more cytotoxic) below 10% as Satisfied, and those at or above as Not satisfied? Much appreciated.

COMPOUND	CLASS
COc1cc(OC)c(C=CS(=O)(=O)Cc2ccc(OC)c(NCC(=O)O)c2)c(OC)c1	Satisfied
C[C@@]12C[C@@]3(O)O[C@@H](O1)[C@]1(COC(=O)c4ccccc4)[C@@H]3C[C@@]12O[C@@H]1O[C@H](CO)[C@@H](O)[C@H](O)[C@@H]1O	Not satisfied
C[C@H](CCC(=O)O)[C@H]1CC[C@H]2[C@@H]3[C@H](O)C[C@@H]4C[C@H](O)CC[C@]4(C)[C@@H]3CC[C@]12C	Not satisfied
COc1cc2ncnc(Nc3cccc(Br)c3)c2cc1OC	Not satisfied
O=C1NCCc2[nH]c(-c3ccncc3)cc21	Satisfied

Confirm or reject: cell viability, % of control (lower = more cytotoxic) of O=C(O)CCCCC(CCSCc1ccccc1)SCc1ccccc1 (stereo not drawn) lies strictly below 10% Not satisfied

// next record CCc1cc(C(C)=NOCc2ccc(C3CCCCC3)c(C(F)(F)F)c2)ccc1CN1CC(C(=O)O)C1 Not satisfied

// next record CC(Oc1ccc(O)cc1)(P(=O)(O)O)P(=O)(O)O Not satisfied

// next record COc1ccnc2[nH]cc(C(=O)C(=O)N3CCN(C(=O)c4ccccc4)C[C@@H]3C)c12 Not satisfied

// next record C[C@H](NCc1ccc2c(c1)nc(NC(=O)c1ccc(-c3cn[nH]c3)s1)n2CCc1ccccc1)C(C)(C)C Satisfied

// next record C=Cc1c(C)c2cc3nc(cc4[nH]c(cc5nc(cc1[nH]2)C(C)=C5CCC(=O)O)c(CCC(=O)OC)c4C)[C@@]1(C)C3=CC=C(C(=O)OC)[C@H]1C(=O)OC Satisfied

// next record O=C(O)[C@H](CC(=O)N1C[C@@H]2CCCC[C@H]2C1)Cc1ccccc1 Not satisfied

// next record C[C@H](NC(=O)[C@@H](O)c1cc(F)cc(F)c1)C(=O)N[C@@H]1C(=O)N(C)c2ccccc2-c2ccccc21 Not satisfied

// next record O=c1[nH]c(=O)n([C@H]2C[C@@H](O)[C@@H](CO)O2)cc1F Not satisfied

// next record Cn1cc(CNCC2CCN(c3ncc(C(=O)NO)cn3)CC2)c2ccccc21 Not satisfied

// next record c1cc(N[C@@H]2CCNC2)nc(-c2cnc3ccc(-c4cn[nH]c4)cn23)c1 Satisfied

// next record CC1=C(C(=O)Nc2cc3cn[nH]c3cc2F)C(c2ccc(Cl)cc2F)N=C(c2ccnc(Cl)c2)N1 (stereo not drawn) Satisfied
